- Tested on: oral epidermoid (KB) carcinoma cell line
- assayMethodText: Cytotoxicity assay (sulforhodamine B), KB
- Format: cell-based, human
- assaySetup: KB cells
*1 amine or outer side, *2 acyl side, *3 side chain or, on linkers, in order; H or OH if unused. Where a SMILES comes first, the peptide text is derived from it. [ ]: non-standard residue; d: D form. X3 = CC1C(C)C1C(N[*:1])C(=O)[*:2]; NMeL = CN[CH](CC(C)C)C(=O)O; NMeA = CN[CH](C)C(=O)O
Listing of recorded Cytotoxic activity IC90, KB by entry.
testReadout: Cytotoxic activity IC90, KB (µM)

{"compound": "CC(=O)O[C@H]1C(=O)[C@@]2(C)[C@H]([C@H](OC(=O)c3ccccc3)[C@]3(O)C[C@H](OC(=O)[C@H](O)[C@@H](NC(=O)c4ccccc4)c4ccccc4)C(C)=C1C3(C)C)[C@]1(OC(C)=O)CO[C@@H]1C[C@@H]2O [Paclitaxel, reference compound]", "comparisonSymbol": ">", "numericReadout": 0.02}
{"compound": "CC(C)CC1NC(=O)C(C)N(C)C(=O)C(C)N(C)C(=O)C(C2C(C)C2C)NC(=O)C(CC(C)C)N(C)C(=O)C(C)N(C)C(=O)C(C2C(C)C2C)NC1=O (centres unmarked) [Compound 1] (cyclo([X3][NMeA][NMeA]L[X3][NMeA][NMeL]); configuration not given here)", "comparisonSymbol": "=", "numericReadout": 0.00165}
